# System: EKVX
# procedure-summary: NCI tumour cell line growth inhibition, 48 h
Activity calls are given as the source filed them. Cut-off read from the data, not from the text of the source: active = GI50 up to about 1.1 µM and inactive = higher. Non-standard residues stand in square brackets, D forms with d. Residues, ends and D or L forms follow the SMILES beside them. *: point of attachment. Cbz = O=C(OCc1ccccc1)*; Boc = CC(C)(C)OC(=O)*; Aib = CC(C)(N)C(=O)O; OBn = c1ccc(CO*)cc1; OtBu = CC(C)(C)O*; βAla = NCCC(=O)O
experimental-readout: GI50

[
  {
    "compound": "CN(C)Cc1cc(/N=N/c2ccc(Cl)cc2)ccc1OC(=O)c1ccccc1",
    "result": "12.1 µM (inactive)"
  },
  {
    "compound": "CC(C)(C)OC(=O)CC(NC(=O)OC(C)(C)C)C(=O)NC(CCCCNC(=O)OCc1ccccc1)C(=O)NC(C)(C)C(=O)NCCC(=O)OCc1ccccc1 (stereo not drawn) (Boc-D(OtBu)K(Cbz)[Aib][βAla]-OBn; configuration not given here)",
    "result": "> 100 µM (inactive)"
  },
  {
    "compound": "Cc1c(/C=N/N=C/c2[nH]c(C(=O)OC(C)(C)C)c(C)c2C)[nH]c(C(=O)OC(C)(C)C)c1C",
    "result": "> 100 µM (inactive)"
  },
  {
    "compound": "Cc1ccc(S(=O)(=O)N/N=C2\\C=C[C@]3(CC2)C(=O)N(C)c2ccccc23)cc1",
    "result": "> 100 µM (inactive)"
  },
  {
    "compound": "COc1ccc(/C=N/NC(=O)CSc2nc(-c3ccccc3)c(-c3ccccc3)[nH]2)cc1OC",
    "result": "31 µM (inactive)"
  },
  {
    "compound": "O/N=C\\C(=N/O)Nc1ccc(Cc2ccc(NC(/C=N\\O)=N/O)cc2)cc1",
    "result": "25.4 µM (inactive)"
  },
  {
    "compound": "CN(C)Cc1cc(Cl)c(O)c(CN(C)C)c1",
    "result": "> 100 µM (inactive)"
  },
  {
    "compound": "Cn1c(=O)c2c(nc3n2CC(=O)N3CCCCl)n(C)c1=O",
    "result": "> 100 µM (inactive)"
  },
  {
    "compound": "O=Cc1ccc(-c2cccs2)s1",
    "result": "79.4 µM (inactive)"
  },
  {
    "compound": "COC(=O)c1ccc(NC(=O)c2cc(OC)c(OC)c(OC)c2)cc1",
    "result": "38.4 µM (inactive)"
  }
]

Given item COc1cc(C2c3cc4c(cc3OC(NNC(N)=O)C2C)OCO4)cc(OC)c1OC (stereo not drawn) , the value recorded as its GI50 is 2.35 µM (inactive)

Consider CCOC(=O)N/N=C(/N)c1cccc(Br)c1 . Its measured GI50 is 83 µM (inactive)

GI50 recorded for this compound, C=C(C)C(=O)OC1C[C@H](COC(C)=O)C2CC=C(CO)C2C2OC(=O)C(=C)[C@H]12 (stereo partly drawn) , is > 100 µM (inactive)

Lab note: measured GI50 of CCOc1ccc(-c2oc(/C=N/NS(=O)(=O)c3ccc(C)cc3)c([N+](=O)[O-])c2-c2ccc(OCC)cc2)cc1 was 26.1 µM (inactive)

Looking up CCCCc1c2cnccc2c(CCCC)c2c1[nH]c1ccccc12 , I see its GI50 listed as 14.6 µM (inactive)

// GI50 value for CCN1CCC(O)(/C=C/c2ccc(C)cc2C)C(C(=O)/C=C/c2ccc(C)cc2C)C1 (stereo not drawn) : 2.74 µM (inactive)

Record O=C(CCc1cc(-c2ccccc2)nc(S)n1)N(Cc1ccccc1)Cc1ccccc1 . Reported GI50: > 100 µM (inactive)

Please fill in: GI50 reported for O=C1Cc2ccccc2N1/N=C\c1ccc(O)cc1 = 82.2 µM (inactive)

###

# Tested on: SF-295
# procedure-summary: NCI tumour cell line growth inhibition, 48 h
Calls of active or inactive are those of the source. Cut-off read from the data, not from the text of the source: active = GI50 up to about 1.1 µM and inactive = higher. Non-standard residues stand in square brackets, D forms with d. Residues, ends and D or L forms follow the SMILES beside them. *: point of attachment. Cbz = O=C(OCc1ccccc1)*; Boc = CC(C)(C)OC(=O)*; Aib = CC(C)(N)C(=O)O; OBn = c1ccc(CO*)cc1; OtBu = CC(C)(C)O*; βAla = NCCC(=O)O
Pick one and only one: active, inactive

Answered cases to consult:
[
  {
    "compound": "CCCCCCCCCCC(O)CCCCCCC(=O)O (centres undefined)",
    "class": "inactive"
  },
  {
    "compound": "CC(C)(C)c1ccc(C(O)c2ccc(C(C)(C)C)cc2)cc1",
    "class": "inactive"
  },
  {
    "compound": "Nc1nc(Cl)cc(OCC2(CO)CCCCC2)n1",
    "class": "inactive"
  },
  {
    "compound": "CN(C)c1ccc(C2CC(=O)CC(c3ccc(N(C)C)cc3)C23C(=O)NC(=S)NC3=O)cc1 (centres undefined)",
    "class": "inactive"
  },
  {
    "compound": "COCC#C[C@@]1(O)CCCCC1CC(OC)OC (some centres undefined)",
    "class": "inactive"
  }
]

Now, please, on to the next compound.
// return assay outcome for CC(C)(C)OC(=O)CC(NC(=O)OC(C)(C)C)C(=O)NC(CCCCNC(=O)OCc1ccccc1)C(=O)NC(C)(C)C(=O)NCCC(=O)OCc1ccccc1 (centres undefined) (Boc-D(OtBu)K(Cbz)[Aib][βAla]-OBn; configuration not given here)
inactive

###

# Tested on: COLO 205
# procedure-summary: NCI tumour cell line growth inhibition, 48 h
Active and inactive are the calls of the source. Cut-off read from the data, not from the text of the source: active = GI50 up to about 1.1 µM and inactive = higher.
Catalogue of GI50 readings, one per entry.

// GI50 value for COc1ccc(C(=O)c2cc(OC)c(OC)c(OC)c2)cc1OC : 4.04 µM (inactive)

Measured GI50 of COC(=O)c1ccc(NC(=O)c2cc(OC)c(OC)c(OC)c2)cc1 : 0.211 µM (active)

The value of GI50 measured for the compound N#CCCCC[N+]12CN3CN(CN(C3)C1)C2 turned out to be > 100 µM (inactive)

O=C1N(C2CCCCC2)CC12CCCCC2 yielded GI50 of > 100 µM (inactive)

Notebook: CC(C)=CCC[C@@H](C)C1=C(Nc2ccccc2F)C(=O)C(C)=C(O)C1=O , GI50 read as 2.9 µM (inactive)

# compound CC1=NC(=Cc2cccc(Cl)c2)C(=O)N1n1c(-c2ccccc2)nc2ccccc2c1=O ; its GI50 = 36.1 µM (inactive)

###

Some molecules, each annotated with its measured GI50.
# Test system: LOX IMVI
# procedure-summary: NCI tumour cell line growth inhibition, 48 h
Active and inactive are the calls of the source. Cut-off read from the data, not from the text of the source: active = GI50 up to about 1.1 µM and inactive = higher.

[
  {
    "molecule": "CCOc1cc2c(cc1O)CC[C@@H]1[C@@H]2CC[C@]2(C)C(N)CC[C@@H]12 (some centres not stated)",
    "experimental-readout": "GI50",
    "result": "4.06 µM (inactive)"
  }
]

Reported LOX IMVI GI50 for item CC1CC(=O)Nc2cc(Cl)ccc2N1C(=O)C1CC1 (configuration not stated) was > 100 µM (inactive)

###

# Test system: SK-MEL-5
# procedure-summary: NCI tumour cell line growth inhibition, 48 h
Activity calls are given as the source filed them. Rule as the data show it: active = GI50 up to about 1.1 µM and inactive = higher.
experimental-readout: GI50

The following molecules have reported results that may help.
[
  {
    "molecule": "Nc1nc(Cl)cc(NCCCCCCCCCCNc2cc(Cl)nc(N)n2)n1",
    "GI50": "0.0982 µM (active)"
  },
  {
    "molecule": "Clc1ccc2c(c1)CC1C[N+]3=C(CCCC3)C1=C2 (stereo unspecified)",
    "GI50": "50.4 µM (inactive)"
  },
  {
    "molecule": "CC(C)=Cc1cc(C(=O)Nc2ccc(Cl)c(Cl)c2)nc(N)n1",
    "GI50": "> 100 µM (inactive)"
  },
  {
    "molecule": "CC(C)Cc1ccc(C(C)/C=C2\\CCC(CN(C)C)C2=O)cc1 (stereo unspecified)",
    "GI50": "11.7 µM (inactive)"
  },
  {
    "molecule": "C=C1CCC2[C@@H](CCC3[C@]2(C)CCC[C@]3(C)C(=O)OC)C1CCO (stereo partly specified)",
    "GI50": "4.53 µM (inactive)"
  }
]

Here CC(=O)[C@@]1(c2ccccc2)CC2(CCN(C)CC2)O[C@H]1C was tested on SK-MEL-5, and its GI50 came to > 100 µM (inactive)

SK-MEL-5 GI50 of CCN(CC)CCCNc1c2c(Cl)cc(Cl)cc2nc2nc(O)nc(C)c12 is 65.9 µM (inactive)

The molecule O=C1CCC2COc3ccc(O)c1c32 (stereo unspecified) on SK-MEL-5: GI50 was > 100 µM (inactive)

// GI50 (SK-MEL-5) for COc1cc([C@@H]2c3cc4c(cc3[C@@H](OC(=O)c3ccccc3)C3COC(=O)[C@@H]32)OCO4)cc(OC)c1O (stereo partly specified) = < 0.01 µM (active)

Reported SK-MEL-5 GI50 for item CCCCCCCCCCCCCCCCCC(=O)NCC(COP(=O)([O-])OCC[N+](C)(C)C)OCC (stereo unspecified) was 17.7 µM (inactive)

Param item: C[n+]1c(-c2ccc(/C=N/Nc3ccnc(N/N=C/c4ccc(-c5cn6ccccc6[n+]5C)cc4)n3)cc2)cn2ccccc21 ; param system: SK-MEL-5; output GI50: 56.4 µM (inactive)
